A compilation of published Ki results with rat mGlu2 receptor (Rattus norvegicus).
Answers are plain numbers, in nM.

Please review the entries below; each comes with its answer.
STRUCTURE AS SMILES	STUDY TARGET	UNITS TEXT	REPORTED VALUE
Cc1nccn1-c1cccc(C2=Nc3cc(O)c(-c4ccccc4F)cc3NC(=O)C2)c1	rat mGlu2 receptor (Rattus norvegicus)	nM	108
Nc1ccc(-c2cn(-c3cc(C(F)(F)F)cc(-c4ccc(C(F)(F)F)cc4)n3)cn2)cn1	rat mGlu2 receptor (Rattus norvegicus)	nM	6
CCOc1cc(-c2cc(C(F)(F)F)nc(-c3ccnc(-c4cccc(S(N)(=O)=O)c4)c3)n2)ccc1C(F)(F)F	rat mGlu2 receptor (Rattus norvegicus)	nM	16

Give Ki for each of the items listed below.
1. Cc1cc(-c2ccc(C(F)(F)F)nc2)cc(-c2cccc(-c3cccc(S(N)(=O)=O)c3)n2)n1
2. N#Cc1cnn2c(C(F)(F)F)cc(-c3ccc(F)c(C(F)(F)F)c3)nc12

// result
[2, 43]

Give Ki for each of the items listed below.
1. FC(F)(F)COc1ccc(-c2cc(C(F)(F)F)n3ncc(-c4ccncc4)c3n2)cc1C(F)(F)F
2. FC(F)(F)c1cc(-c2ccc(Cl)cc2)nc(-c2cccc(-c3cccnc3)c2)n1
3. NS(=O)(=O)c1ccc(-c2cc(-c3nc(-c4ccc(C(F)(F)F)nc4)cc(C(F)F)n3)ccn2)s1

// result
1. 48
2. 47
3. 3.5

---

A compilation of published Ki results with rat mGlu2 receptor (Rattus norvegicus).
Give bare numbers, in nM.

Please review the entries below; each comes with its answer.
STRUCTURE AS SMILES	Ki / nM
OCc1ccc(-c2cccc(-c3nc(-c4ccc(C(F)(F)F)cc4)cc(C(F)(F)F)n3)c2)cc1	6
Cc1cc(-c2ccc(C(F)(F)F)cc2)cc(-c2cccc(-c3ccc(S(N)(=O)=O)cc3)n2)n1	19
Clc1ccc(-c2c(-c3ccncc3)nc(-c3c(Cl)cccc3Cl)n2C2CC2)cc1	21

Continue with the next molecule.
// query Return Ki for the following molecule: Nc1ccc(-c2cc(-c3nc(-c4ccc(C(F)(F)F)nc4)cc(C(F)(F)F)n3)ccn2)cn1
// result 15.6

---

A compilation of published Ki results with rat mGlu2 receptor (Rattus norvegicus).
Numbers only, in nM.

STRUCTURE AS SMILES	UNITS TEXT	Ki
NS(=O)(=O)c1cccc(-c2cn(-c3nc(-c4ccc(Cl)s4)cc(C(F)(F)F)n3)cn2)c1	nM	11.6
Cc1cc(-c2ccc(C(F)(F)F)cc2)cc(-c2ccnc(-c3cccc(S(=O)(=O)N4CCN(C)CC4)c3)c2)n1	nM	22
N#Cc1cccc(C2=Nc3ccc(-c4ccc(F)cc4)cc3NC(=O)C2)c1	nM	55
Cc1cc(-c2ccc(C(F)(F)F)nc2)cc(-c2cccc(-c3ccc(N)nc3)c2)n1	nM	42
N#CCc1cc2c(cc1C#Cc1ccccc1)NC(=O)CC(c1cccc(C#N)c1)=N2	nM	16
Cc1cc(-c2ccc(C(F)(F)F)cc2)cc(-c2nc(-c3cccc(S(N)(=O)=O)c3)no2)n1	nM	4
O=C1CC(c2cccc(-c3nc(C(=O)O)cs3)c2)=Nc2ccc(-c3ccccc3F)cc2N1	nM	16
O=C1CC(c2cccc(-n3ccnc3)c2)=Nc2cc(CO)c(C#Cc3ccc(F)cc3)cc2N1	nM	9

Give Ki for each of the items listed below.
1. Cc1cc(-c2ccc(C(F)(F)F)cc2)cc(-c2cccc(-c3cccc(S(C)(=O)=O)c3)n2)n1
2. COc1cc2c(cc1-c1ccccc1F)NC(=O)CC(c1ccnc(C#N)c1)=N2
3. N#Cc1cccc(C2=Nc3cc(O)c(-c4cc(F)ccc4F)cc3NC(=O)C2)c1
4. Cc1cc(-c2ccc(Cl)c(Cl)c2)cc(-c2cccc(-c3ccc(N)nc3)c2)n1

// result
1
33
6
9

Give Ki for each of the items listed below.
1. CN(C)CCNS(=O)(=O)c1cccc(NC(=O)c2cnn3c(C(F)F)cc(-c4ccc(C(F)(F)F)cc4)nc23)c1
2. NS(=O)(=O)c1cccc(-c2cccc(-c3nc(-c4ccc(C(F)(F)F)nc4)cc(C(F)(F)F)n3)c2)c1
3. Cc1cc(-c2ccc(C(F)(F)F)cc2)cc(-c2cccc(-c3cnc(N)nc3)c2)n1
4. CN(C)S(=O)(=O)Nc1cccc(-c2cccc(-c3nc(-c4ccc(C(F)(F)F)cc4)cc(C(F)(F)F)n3)c2)c1

// result
7
1.8
44
12.4
